Below: a set of entries, each annotated with reported pKd.
- target.or.system: T1, huNectin4-His (human, UniProt Q96NY8 32-349)
- T1 construct: Immobilized on the SPR chip; also called humanNectin4; human Nectin4; not shown: His tag
- T1 sequence (looked up): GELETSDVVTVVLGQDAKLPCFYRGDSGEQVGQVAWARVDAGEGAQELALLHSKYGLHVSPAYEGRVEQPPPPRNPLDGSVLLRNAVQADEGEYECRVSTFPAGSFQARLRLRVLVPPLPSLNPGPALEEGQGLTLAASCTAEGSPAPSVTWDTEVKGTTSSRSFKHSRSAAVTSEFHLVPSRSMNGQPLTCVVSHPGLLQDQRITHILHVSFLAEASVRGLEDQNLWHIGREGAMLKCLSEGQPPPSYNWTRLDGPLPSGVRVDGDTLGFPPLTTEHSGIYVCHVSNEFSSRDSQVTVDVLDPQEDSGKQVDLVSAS
- measurement.protocol: SPR, huNectin4-His immobilized, pH 6.5
pKd: −log10 of the molar value.

{"columns": ["binder", "pKd"],
 "data": [
  ["BAP-143-06-33-16 (antibody, V domains shown, Used as a conjugate with a linker payload (CAB ADC)) VH: EVQLVQSGAEVKKPGATVKISCKVSGFTFSSYNMNWIRQSPSRGLEWLGYISSSSSTIYYADSVKGRFTISRDNSKNTLYLQMNSLRAEDTAVYYCARAYYYGDDVWGQGTLVTVSS VL: DIQMTQSPSSVSASVGDRVTITCRASQGISGWEAWYQQKPGKAPKFLIYAASTLQSGVPSRFSGSGSGTDFTLTISSLQPEDFATYYCQQANSFPPTFGGGTKVEIK", 10.55],
  ["BAP-143-wildtype (antibody, V domains shown, 150 kDa used in SPR; also called BAP143-00-00; benchmark (BM)) VH: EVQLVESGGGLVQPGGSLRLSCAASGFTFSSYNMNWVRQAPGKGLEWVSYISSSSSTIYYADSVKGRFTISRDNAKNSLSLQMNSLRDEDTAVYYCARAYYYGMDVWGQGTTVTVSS VL: DIQMTQSPSSVSASVGDRVTITCRASQGISGWLAWYQQKPGKAPKFLIYAASTLQSGVPSRFSGSGSGTDFTLTISSLQPEDFATYYCQQANSFPPTFGGGTKVEIK", 9.99],
  ["BAP-143-00-01 (antibody, V domains shown, Used as a conjugate with a linker payload (CAB ADC)) VH: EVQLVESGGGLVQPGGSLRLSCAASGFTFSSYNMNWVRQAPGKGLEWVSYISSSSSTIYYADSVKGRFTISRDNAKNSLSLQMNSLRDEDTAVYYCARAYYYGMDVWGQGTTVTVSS VL: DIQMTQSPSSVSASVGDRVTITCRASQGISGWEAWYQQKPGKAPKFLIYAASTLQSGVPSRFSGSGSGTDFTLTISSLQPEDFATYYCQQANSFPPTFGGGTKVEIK", 9.11]
]}
